test system: CEM-SS cells; assay: Compound toxicity by XTT in uninfected CEM-SS cells; assay type: cell-based; settings: Table 2; read-out: TC50, CEM-SS cells
Value kind: CC50

Smiles text	Value kind	Value measured
CC(C)C(=O)Oc1ccc(CSc2ccccc2C(=O)NCCC(N)=O)cc1	CC50	> 100 µM

Consider the additional compound presented here.
(Q) Suppose we examine the compound "CC(=O)Sc1ccccc1C(=O)NCCC(N)=O" ; what CC50 value has been reported?
(A) > 100 µM

----------
test system: HIV-1IIIB; test: XTT cytoprotection assay, CEM-SS cells infected with HIV-1IIIB; type: cell-based; details: Human immunodeficiency virus 1, 144 h, Table 1, 6 days, read-out: EC50 (50% cytoprotection), CEM-SS cells
Value kind: pEC50
Answer as the number alone; pEC50 is minus log10 of concentration in mol/L.

Smiles text	pEC50
CC(C)C(=O)Oc1ccc(CSc2ccccc2C(=O)NCCC(N)=O)cc1	6.70
CC(=O)Sc1ccccc1C(=O)NCCC(N)=O	6.22

Consider the additional molecule presented here.
(Q) API: value(readout=pEC50, system=HIV-1IIIB) for record "NC(=O)CCNC(=O)c1ccccc1SCc1ccccc1"
(A) 4.46
